Experiment: Systemic pharmacokinetics and total colon tissue distribution after single oral administration in mice
Format: in vivo, male C57BL/6 mice
Details: male, C57BL/6, mouse, total colon tissue, oral 10 mg/kg, total colon, 1 h, read-out: Total colon level
Property measured: concentration at 1 h (ng/g)
Express it in ng/g; write the number only.

Write down concentration at 1 h measured for item CCc1cc(O)c(F)cc1-c1ccc2c(-c3nc4c([nH]3)CCN(C(=O)c3cnc(N(C)CCN5CCCC5=O)cn3)C4)n[nH]c2c1 1160

---

Assay: Solubility in fasted-state simulated colonic fluid (FaSSCoF) at pH 6.5
Type: physicochemical
Details: 25 °C, pH 6.5, fassgf or other biorelevant, thermodynamic from solid, pH 6.5, 25° C., Run 2, read-out: pH 6.5 FaSSCoF Solubility Run 2
Property measured: solubility thermodynamic at 24 h (µg/mL)
Please reply with the bare figure in µg/mL and do not write the unit itself.

Specify measured solubility thermodynamic at 24 h for CCc1cc(O)c(F)cc1-c1ccc2c(-c3nc4c([nH]3)CCN(C(=O)c3cnc(N5CCC[C@H]5CO)cn3)C4)n[nH]c2c1 . 40

// fetch solubility thermodynamic at 24 h given entry CCc1cc(O)c(F)cc1-c1ccc2c(-c3nc4c([nH]3)CCN(C(=O)c3cnc(N5CCCCC5)cn3)C4)n[nH]c2c1 [Reference Compound, reference compound] 6

Please give measured solubility thermodynamic at 24 h of the following entry: CCc1cc(O)c(F)cc1-c1ccc2c(-c3nc4c([nH]3)CCN(C(=O)c3cnc(N(C)C5CCN(C)CC5)cn3)C4)n[nH]c2c1 10
